A collection of variants and their measured protein stability index
B1: PTPN9 (parent)
chain: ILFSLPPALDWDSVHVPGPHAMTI

variants of: B1; experiment: protein stability index of a GFP-peptide fusion (GPS, HEK-293T) (PSI 1-6); higher = more stable; settings: c terminus: a fixed tail appended;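 note: lentivirally expressed fusions sorted by FACS into six bins by GFP to DsRed ratio, PSI derived from sequencing read proportions per bin multiplied by bin number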
// no unit string in output, number only

I would be grateful if you could share the reported protein stability index for "V16N" .
1.74

I have this variant here, "P19F" , and I need its recorded protein stability index.
3.89

Give its protein stability index value. Item: "I24M"
2.69

What value of protein stability index has been reported for the following variant? "L5T"
2.99

Look up protein stability index for this variant: "P19I"
2.37

Next:
Fill in: protein stability index of "W11A" is ___
3.48

Give the measured protein stability index of "H20Q" .
2.31

Report protein stability index for "S13V" please.
2.03

Consider the variant "H15I" and give its measured protein stability index.
2.88
